tested on: cancer cells; assay: MTT cytotoxic assay of esterification products (Cytotoxicity activity); type: cell-based, human; conditions: E4A esterified with 2-propenoyl chloride (Ppe = Propenoyl), compounds isolated with HPLC
MEASUREMENT LABEL: Cytotoxicity activity

COMPOUND	MEASUREMENT LABEL	RESULT
CC1(C)CC2C3=CCC4C5(C)CCC(OC(=O)c6ccccc6)C(C)(COC(=O)c6ccccc6)C5CCC4(C)C3(C)CC(O)C2(COC(=O)c2ccccc2)C(OC(=O)c2ccccc2)C1O (centres unmarked)	Cytotoxicity activity	weak
CC1(C)CC2C3=CCC4C5(C)CCC(OC(=O)c6ccccc6)C(C)(COC(=O)c6ccccc6)C5CCC4(C)C3(C)CC(O)C2(COC(=O)c2ccccc2)C(OC(=O)c2ccccc2)C1OC(=O)c1ccccc1 (centres unmarked)	Cytotoxicity activity	weak
CC1(C)CC2C3=CCC4C5(C)CCC(O)C(C)(COC(=O)c6ccccc6)C5CCC4(C)C3(C)CC(O)C2(CO)C(OC(=O)c2ccccc2)C1O (centres unmarked)	Cytotoxicity activity	moderate
CC1(C)CC2C3=CCC4C5(C)CCC(OC(=O)c6ccccc6)C(C)(COC(=O)c6ccccc6)C5CCC4(C)C3(C)CC(OC(=O)c3ccccc3)C2(COC(=O)c2ccccc2)C(OC(=O)c2ccccc2)C1OC(=O)c1ccccc1 (centres unmarked)	Cytotoxicity activity	none
CC1(C)CC2C3=CCC4C5(C)CCC(O)C(C)(CO)C5CCC4(C)C3(C)CC(O)C2(COC(=O)c2ccccc2)C(O)C1OC(=O)c1ccccc1 (centres unmarked)	Cytotoxicity activity	moderate

* * *

test system: cancer cells; assay: MTT cytotoxic assay of esterification products (Cytotoxicity activity); type: cell-based, human; conditions: E4A esterified with Acetyl chloride (Acy = Acetyl), compounds isolated with HPLC

COMPOUND	Cytotoxicity activity
CC(=O)OCC12C(O)CC3(C)C(=CCC4C5(C)CCC(O)C(C)(CO)C5CCC43C)C1CC(C)(C)C(O)C2OC(C)=O (stereo not drawn)	moderate
CC(=O)OCC1(C)C(OC(C)=O)CCC2(C)C1CCC1(C)C2CC=C2C3CC(C)(C)C(O)C(OC(C)=O)C3(COC(C)=O)C(O)CC21C (stereo not drawn) [Compound H9]	weak
CC(=O)OCC12C(OC(C)=O)CC3(C)C(=CCC4C5(C)CCC(O)C(C)(CO)C5CCC43C)C1CC(C)(C)C(O)C2O (stereo not drawn)	moderate
CC(=O)OCC12C(O)CC3(C)C(=CCC4C5(C)CCC(O)C(C)(CO)C5CCC43C)C1CC(C)(C)C(O)C2O (stereo not drawn)	moderate
CC(=O)OCC1(C)C(OC(C)=O)CCC2(C)C1CCC1(C)C2CC=C2C3CC(C)(C)C(O)C(OC(C)=O)C3(COC(C)=O)C(OC(C)=O)CC21C (stereo not drawn)	weak
CC(=O)OCC1(C)C(O)CCC2(C)C1CCC1(C)C2CC=C2C3CC(C)(C)C(OC(C)=O)C(OC(C)=O)C3(COC(C)=O)C(OC(C)=O)CC21C (stereo not drawn)	weak

* * *

tested on: ES2; assay: MTT assay, ovary (ES2); type: cell-based, human; details: MTT
MEASUREMENT LABEL: IC50 of ovary (ES2)

COMPOUND	MEASUREMENT LABEL	RESULT
CC=C(C)C(=O)OCC1(C)C(OC(=O)C(C)=CC)CCC2(C)C1CCC1(C)C2CC=C2C3CC(C)(C)C(OC(=O)C(C)=CC)C(O)C3(CO)C(O)CC21C (stereo not shown)	IC50 of ovary (ES2)	17 µg/mL
CC=C(C)C(=O)OCC1(C)C(O)CCC2(C)C1CCC1(C)C2CC=C2C3CC(C)(C)C(O)C(O)C3(CO)C(O)CC21C (stereo not shown)	IC50 of ovary (ES2)	9 µg/mL
CC=C(C)C(=O)OCC1(C)C(O)CCC2(C)C1CCC1(C)C2CC=C2C3CC(C)(C)C(OC(=O)C(C)=CC)C(O)C3(COC(=O)C(C)=CC)C(O)CC21C (stereo not shown)	IC50 of ovary (ES2)	2 µg/mL
CC=C(C)C(=O)OCC1(C)C(O)CCC2(C)C1CCC1(C)C2CC=C2C3CC(C)(C)C(O)C(OC(=O)C(C)=CC)C3(COC(=O)C(C)=CC)C(O)CC21C (stereo not shown)	IC50 of ovary (ES2)	14 µg/mL

Sourced from patent US20230340012A1
